TARGET UNDER TEST: human MC3R (human, UniProt P41968 1-323)
Sequence (P41968 whole entry): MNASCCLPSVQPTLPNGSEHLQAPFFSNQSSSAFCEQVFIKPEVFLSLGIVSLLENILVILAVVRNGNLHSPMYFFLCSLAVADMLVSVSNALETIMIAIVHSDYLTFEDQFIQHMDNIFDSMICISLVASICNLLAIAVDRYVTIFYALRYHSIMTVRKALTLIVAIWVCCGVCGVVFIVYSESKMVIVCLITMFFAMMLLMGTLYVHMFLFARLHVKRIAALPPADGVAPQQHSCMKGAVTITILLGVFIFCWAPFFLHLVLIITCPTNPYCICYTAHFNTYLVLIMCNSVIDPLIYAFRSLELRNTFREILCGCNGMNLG
METHOD DESCRIPTION: cell-based or functional assay
Starred links: 1 amine or outer side, 2 acyl side, 3 side chain; linkers in the order of their positions; H or OH if unused. Positions of bridges follow the written chain, without caps; N, C: chain ends. Non-standard residues stand in square brackets, D forms with d. Primed or numbered codes have the meaning given here. dTyr(4-OMe)″ = O-methyl-D-tyrosine, COc1ccc(C[C@@H](N[*:1])C(=O)[*:2])cc1; d1Nal = N[C@H](Cc1cccc2ccccc12)C(=O)O; Cit = NC(=O)NCCC[C@H](N)C(=O)O; NMeA = CN[C@@H](C)C(=O)O; Nle = CCCC[C@H](N)C(=O)O; Aib = CC(C)(N)C(=O)O
Response field label takes t when cAMP EC50 is strictly below 5 nM and f in all other cases.

Ac-R[Nle]CR[d1Nal]RWC-NH2 (disulfide 3-8; SMILES CCCC[C@H](NC(=O)[C@H](CCCNC(=N)N)NC(C)=O)C(=O)N[C@H]1CSSC[C@@H](C(N)=O)NC(=O)[C@H](Cc2c[nH]c3ccccc23)NC(=O)[C@H](CCCNC(=N)N)NC(=O)[C@@H](Cc2cccc3ccccc23)NC(=O)[C@H](CCCNC(=N)N)NC1=O) [CTX-1611] :: f
Ac-RC[Aib]R[dF]RWC-NH2 (disulfide 2-8) [CTX-1292] :: t
Ac-RC[Aib][Cit][dTyr(4-OMe)″]RFC-NH2 (disulfide 2-8) [CTX-1299] :: f
Ac-RC[Aib]R[dF][Cit]WC-NH2 (disulfide 2-8) [CTX-1270] :: f
Ac-C[dA]R[dF]RWC-NH2 (disulfide 1-7; SMILES CC(=O)N[C@H]1CSSC[C@@H](C(N)=O)NC(=O)[C@H](Cc2c[nH]c3ccccc23)NC(=O)[C@H](CCCNC(=N)N)NC(=O)[C@@H](Cc2ccccc2)NC(=O)[C@H](CCCNC(=N)N)NC(=O)[C@@H](C)NC1=O) [CTX-1627] :: t
Ac-RC[NMeA]R[dF]R[dW]C-NH2 (disulfide 2-8; SMILES CC(=O)N[C@@H](CCCNC(=N)N)C(=O)N[C@H]1CSSC[C@@H](C(N)=O)NC(=O)[C@@H](Cc2c[nH]c3ccccc23)NC(=O)[C@H](CCCNC(=N)N)NC(=O)[C@@H](Cc2ccccc2)NC(=O)[C@H](CCCNC(=N)N)NC(=O)[C@H](C)N(C)C1=O) [CTX-1269] :: f

Now consider the entry below.
Ask: I wonder whether Ac-R[Nle]CR[dF]R[dW]C-NH2 (disulfide 3-8) [CTX-1616] has cAMP EC50 below 5 nM. Can you tell?
Reply: f

// provenance: patent US20240391954A1
